target: Gal(b1-4)GalNAc(a1-3)[Fuc(a1-2)]Gal(b1-4)GlcNAc; experiment: glycan array binding signal (z-score within array); higher = stronger binding; settings: glycan notation: IUPAC condensed, linker removed
This is one part of a sample in which the strongest signals are shown more often than they occur.
measuredProperty: glycan array binding signal (z-score)

GET /values?readout=glycan array binding signal (z-score)&item= EULS2 M3 (Oryza sativa) (protein) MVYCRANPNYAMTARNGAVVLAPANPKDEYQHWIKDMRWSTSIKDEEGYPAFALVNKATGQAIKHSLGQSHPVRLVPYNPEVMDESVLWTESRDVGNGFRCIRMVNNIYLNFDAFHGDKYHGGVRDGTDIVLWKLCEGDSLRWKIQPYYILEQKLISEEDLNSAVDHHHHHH
-0.34

Same read-out for RegIIIgamma (Mus musculus), O09049 (protein) MLPRITITIMSWMLLSCLMLLSQVQGEVAKKDAPSSRSSCPKGSRAYGSYCYALFSVSKNWYDADMACQKRPSGHLVSVLSGAEASFLSSMIKSSGNSGQYVWIGLHDPTLGYEPNRGGWEWSNADVMNYINWETNPSSSSGNHCGTLSRASGFLKWRENYCNLELPYVCKFKA ?
-0.228

One more binder: FGF1 (Homo sapiens), P05230 (protein) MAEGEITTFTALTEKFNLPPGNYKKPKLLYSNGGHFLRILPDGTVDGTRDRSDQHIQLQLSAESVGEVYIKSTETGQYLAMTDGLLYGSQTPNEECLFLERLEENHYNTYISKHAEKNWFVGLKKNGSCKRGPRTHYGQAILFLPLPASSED
-0.949
